assay-target: BRAF D594G (Homo sapiens, UniProt P15056, D594G)
Construct: Horizon Discovery (HCT-116 BRAF−/− cells); host or cells: HCT-116 BRAF−/− cells, clone 63, lentiviral transduction
Sequence (P15056 whole entry D594G): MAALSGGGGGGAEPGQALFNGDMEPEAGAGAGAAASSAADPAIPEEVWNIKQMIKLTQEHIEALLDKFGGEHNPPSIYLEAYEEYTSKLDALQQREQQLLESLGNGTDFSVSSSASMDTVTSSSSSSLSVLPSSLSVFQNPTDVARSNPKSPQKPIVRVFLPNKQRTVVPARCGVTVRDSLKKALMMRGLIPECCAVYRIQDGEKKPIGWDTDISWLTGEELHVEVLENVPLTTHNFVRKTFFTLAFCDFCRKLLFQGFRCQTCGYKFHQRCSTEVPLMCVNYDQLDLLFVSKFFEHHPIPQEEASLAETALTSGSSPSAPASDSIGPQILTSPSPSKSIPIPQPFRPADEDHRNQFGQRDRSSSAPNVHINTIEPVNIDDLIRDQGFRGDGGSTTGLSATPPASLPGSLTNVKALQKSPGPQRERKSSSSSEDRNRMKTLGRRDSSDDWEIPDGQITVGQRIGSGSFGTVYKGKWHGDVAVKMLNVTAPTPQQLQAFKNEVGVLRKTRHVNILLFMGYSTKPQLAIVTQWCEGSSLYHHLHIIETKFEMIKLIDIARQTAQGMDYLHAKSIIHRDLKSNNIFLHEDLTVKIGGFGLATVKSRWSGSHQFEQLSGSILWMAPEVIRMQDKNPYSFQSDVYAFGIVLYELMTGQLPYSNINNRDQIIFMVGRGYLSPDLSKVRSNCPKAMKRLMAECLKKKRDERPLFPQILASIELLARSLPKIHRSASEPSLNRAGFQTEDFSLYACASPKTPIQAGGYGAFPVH
protocol-summary: BRAF HiBiT degradation assay, C-terminal HiBiT-tagged BRAF D594G overexpressed in HCT-116 BRAF−/− cells (clone 63), Nano-Glo HiBiT Lytic assay
Assay type: cell-based
measurement-setup: HCT-116; BRAF D594G; percentage protein degraded at maximal compound effect relative to DMSO
measurement-label: Dmax

Some compounds with known Dmax results, for comparison:
{"columns": ["compound", "reported-result"],
 "data": [
  ["CCCS(=O)(=O)Nc1cccc(-c2nc(C3CCC4(CC3)CCN(C(=O)C3CCN(c5ccc6c(c5)C(=O)N(C5CCC(=O)NC5=O)C6=O)CC3)CC4)sc2-c2ccnc(N)n2)c1F (racemic)", "30 to 70%"],
  ["CCCS(=O)(=O)Nc1cccc(-c2nc(C3CCN(C(=O)C4(C)CCN(C(=O)C5CCN(c6ccc(C7CCC(=O)NC7=O)cn6)CC5)CC4)CC3)sc2-c2ccncn2)c1F (racemic)", "> 70%"],
  ["CCCS(=O)(=O)Nc1cccc(-c2nc(C(C)(C)C)sc2-c2ccnc(Nc3cnn(C4CCN(C(=O)[C@H]5CC[C@H](Oc6ccc(C7CCC(=O)NC7=O)cc6)CC5)CC4)c3)n2)c1F (mixture of isomers)", "< 30%"],
  ["CCCS(=O)(=O)Nc1cccc(-c2nc(C(C)(C)C)sc2-c2ccnc(Nc3ccc(N4CCN(C(=O)CC5CCN(c6ccc(NC7CCC(=O)NC7=O)cc6)CC5)CC4)c(F)c3)n2)c1F (racemic)", "30 to 70%"],
  ["CCN(C)S(=O)(=O)Nc1cccc(-c2nc(C3CCN(C(=O)C4CCN(C(=O)C5CCN(c6ccc(C7CCC(=O)NC7=O)cn6)CC5)CC4)CC3)sc2-c2ccnc(N)n2)c1F (racemic)", "> 70%"]
]}

## Task Which Dmax is reported for this compound? CCCS(=O)(=O)Nc1cccc(-c2nc(C(C)(C)C)sc2-c2ccnc(Nc3ccc(N4CCN(C(=O)CC5(O)CCN(c6ccc(NC7CCC(=O)NC7=O)cc6F)CC5)CC4)c(F)c3)n2)c1F (racemic)
## Result < 30%

* * *

# Dmax per entry
assay-target: BRAF V600E (Homo sapiens, UniProt P15056, V600E)
Construct: endogenous C-terminal HiBiT fusion tag on BRAF V600E allele; endogenous in cells; host or cells: A375 clone 1F10 (CRISPR-Cas9 knock-in of the HiBiT tag; parental A375 from ATCC)
Sequence (P15056 whole entry V600E, the tested form may be a part): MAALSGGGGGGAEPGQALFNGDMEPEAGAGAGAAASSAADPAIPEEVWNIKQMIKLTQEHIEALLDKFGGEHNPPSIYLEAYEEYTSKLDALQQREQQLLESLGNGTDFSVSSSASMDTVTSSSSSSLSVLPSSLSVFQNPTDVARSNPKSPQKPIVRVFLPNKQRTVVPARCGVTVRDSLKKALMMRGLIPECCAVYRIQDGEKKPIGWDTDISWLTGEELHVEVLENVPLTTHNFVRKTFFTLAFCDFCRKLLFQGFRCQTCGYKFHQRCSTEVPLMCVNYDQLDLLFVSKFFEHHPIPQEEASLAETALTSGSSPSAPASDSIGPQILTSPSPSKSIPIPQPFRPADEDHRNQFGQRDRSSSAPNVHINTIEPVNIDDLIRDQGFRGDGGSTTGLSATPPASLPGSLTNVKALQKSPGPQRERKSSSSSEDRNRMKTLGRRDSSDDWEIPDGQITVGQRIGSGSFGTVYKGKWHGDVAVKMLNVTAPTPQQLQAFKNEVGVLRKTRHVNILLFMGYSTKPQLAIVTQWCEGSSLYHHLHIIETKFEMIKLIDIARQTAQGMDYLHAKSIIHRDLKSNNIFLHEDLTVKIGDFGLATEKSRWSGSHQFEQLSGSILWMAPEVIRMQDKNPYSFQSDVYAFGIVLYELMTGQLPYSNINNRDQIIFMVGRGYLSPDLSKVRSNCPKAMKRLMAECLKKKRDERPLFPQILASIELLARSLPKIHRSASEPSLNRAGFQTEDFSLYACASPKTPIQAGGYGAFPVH
protocol-summary: BRAF HiBiT degradation assay, C-terminal HiBiT-tagged BRAF V600E A375 cells (clone 1F10), Nano-Glo HiBiT Lytic assay
Assay type: cell-based
measurement-setup: A-375; A375 (BRAF V600E); percentage protein degraded at maximal compound effect relative to DMSO

Some compounds with known Dmax results, for comparison:
{"columns": ["compound", "Dmax"],
 "data": [
  ["CCCS(=O)(=O)Nc1cccc(-c2nc(C3(C)CCN(C(=O)CN4CCN(c5ccc6c(c5)C(=O)N(C5CCC(=O)NC5=O)C6=O)CC4)CC3)sc2-c2ccnc(N)n2)c1F (racemic)", "30 to 70%"],
  ["CCCS(=O)(=O)Nc1cccc(-c2cn(-c3ccc(N4CCN(CC5(C)CCN(c6ccc(C7CCC(=O)NC7=O)cn6)CC5)CC4)cc3)nc2-c2ccncc2)c1F (racemic)", "30 to 70%"],
  ["CCN(C)S(=O)(=O)Nc1cccc(-c2nc(C)sc2-c2ccnc(Nc3ccc(N4CCN(CC5(C)CCN(c6ccc(C7CCC(=O)NC7=O)cn6)CC5)CC4)cn3)n2)c1F (racemic)", "> 70%"],
  ["CCCS(=O)(=O)Nc1cccc(-c2nc(C(C)(C)C)sc2-c2ccnc(Nc3ccc(N4CCN(C(=O)CC5(O)CCN(c6ccc(NC7CCC(=O)NC7=O)cc6F)CC5)CC4)c(F)c3)n2)c1F (racemic)", "> 70%"],
  ["CCCS(=O)(=O)Nc1cccc(-c2nc(C(C)(C)C)sc2-c2ccnc(Nc3ccc(C4CCN(C(=O)CCCCCc5ccc6c(c5)C(=O)N(C5CCC(=O)NC5=O)C6)CC4)cc3)n2)c1F (racemic)", "30 to 70%"]
]}

In the following, a different compound is considered.
## Task Which Dmax is reported for this compound? CCCS(=O)(=O)Nc1cccc(-c2nc(C3CCN(C(=O)CN4CCC5(CC4)CN(c4ccc6c(c4)C(=O)N(C4CCC(=O)NC4=O)C6=O)C5)CC3)sc2-c2ccnc(N)n2)c1F (racemic)
## Result > 70%

* * *

assay-target: BRAF V600E (Homo sapiens, UniProt P15056, V600E)
Construct: endogenous C-terminal HiBiT fusion tag on BRAF V600E allele; endogenous in cells; host or cells: A375 clone 1F10 (CRISPR-Cas9 knock-in of the HiBiT tag; parental A375 from ATCC)
protocol-summary: BRAF HiBiT degradation assay, C-terminal HiBiT-tagged BRAF V600E A375 cells (clone 1F10), Nano-Glo HiBiT Lytic assay
Type: cell-based
measurement-setup: A-375; A375 (BRAF V600E); percentage protein degraded at maximal compound effect relative to DMSO
# Dmax per entry

Some compounds with known Dmax results, for comparison:
{"columns": ["compound", "assay-target", "Dmax"],
 "data": [
  ["CCCS(=O)(=O)Nc1cccc(-c2nc(C(C)(C)C)sc2-c2ccnc(Nc3cnn(CC4CCN(C(=O)C5CCN(c6ccc(C(=O)NC7CCC(=O)NC7=O)nc6)CC5)CC4)c3)n2)c1F (racemic)", "BRAF V600E (Homo sapiens, UniProt P15056, V600E)", "30 to 70%"],
  ["CCCS(=O)(=O)Nc1cccc(-c2nc(C(C)(C)C)sc2-c2ccnc(Nc3cnn(CC4CCN(CC5CCN(c6ccc(C(=O)N[C@@H]7CCC(=O)NC7=O)nc6)CC5)CC4)c3)n2)c1F", "BRAF V600E (Homo sapiens, UniProt P15056, V600E)", "> 70%"],
  ["CCCS(=O)(=O)Nc1cccc(-c2nc(C(C)(C)C)sc2-c2ccnc(Nc3cnn(CC4CCN(C(=O)CN5CCN(c6cc(C7CCC(=O)NC7=O)ccn6)CC5)CC4)c3)n2)c1F (racemic)", "BRAF V600E (Homo sapiens, UniProt P15056, V600E)", "> 70%"],
  ["CCCS(=O)(=O)Nc1cccc(-c2nc(-c3ccc(N4CCN(CC5CCN(c6ccc([C@@H]7CCC(=O)NC7=O)cc6)CC5)CC4)cc3)sc2-c2ccnc(N)n2)c1F", "BRAF V600E (Homo sapiens, UniProt P15056, V600E)", "> 70%"]
]}

In the following, a different compound is considered.
## Task What measured Dmax is associated with CCCS(=O)(=O)Nc1cccc(-c2nc(C3CCN(C(=O)C4CCN(C(=O)CC5CCN(c6ccc(C7CCC(=O)NC7=O)cn6)CC5)CC4)CC3)sc2-c2ccnc(N)n2)c1F (racemic) on BRAF V600E (Homo sapiens, UniProt P15056, V600E)?
## Result > 70%

* * *

assay-target: BRAF D594G (Homo sapiens, UniProt P15056, D594G)
Construct: Horizon Discovery (HCT-116 BRAF−/− cells); host or cells: HCT-116 BRAF−/− cells, clone 63, lentiviral transduction
protocol-summary: BRAF HiBiT degradation assay, C-terminal HiBiT-tagged BRAF D594G overexpressed in HCT-116 BRAF−/− cells (clone 63), Nano-Glo HiBiT Lytic assay
Assay type: cell-based
measurement-setup: BRAF D594G (Class 3), HCT-116 BRAF−/− cells; observed Dmax relative to DMSO control
measurement-label: Dmax

{"columns": ["compound", "assay-target", "reported-result"],
 "data": [
  ["CCN(C)S(=O)(=O)Nc1cc(Cl)cc(-c2cn(-c3ccc(N4CCN(CC5CCN(c6ccc([C@H]7CCC(=O)NC7=O)cc6)CC5)CC4)cc3)nc2-c2ccncc2)c1F", "BRAF D594G (Homo sapiens, UniProt P15056, D594G)", "30 to 70%"],
  ["O=C1CCN(c2ccc(N3CCC(CN4CCN(c5ccc(-n6cc(-c7cc(Cl)cc(NS(=O)(=O)N8CC(F)C8)c7F)c(-c7ccncc7)n6)c(F)c5)CC4)CC3)nc2)C(=O)N1", "BRAF D594G (Homo sapiens, UniProt P15056, D594G)", "30 to 70%"],
  ["O=C1CCC(c2ccc(N3CCC(CN4CCN(c5ccc(-n6cc(-c7cc(Cl)cc(NS(=O)(=O)N8CCCC8)c7F)c(-c7ccncc7)n6)cc5)CC4)CC3)c(F)c2)C(=O)N1 (racemic)", "BRAF D594G (Homo sapiens, UniProt P15056, D594G)", "> 70%"],
  ["CCN(C)S(=O)(=O)Nc1cc(F)cc(-c2cn(-c3ccc(N4CCN(CC5CCN(c6ccc([C@H]7CCC(=O)NC7=O)cn6)CC5)CC4)cc3)nc2-c2ccncc2)c1F", "BRAF D594G (Homo sapiens, UniProt P15056, D594G)", "> 70%"]
]}

In the following, a different compound is considered.
## Task What measured Dmax is associated with O=C1CCN(c2ccc(N3CCC(CN4CCN(c5ccc(-n6cc(-c7cc(C(F)F)cc(NS(=O)(=O)N8CCCC8)c7F)c(-c7ccncc7)n6)c(F)c5)CC4)CC3)cc2)C(=O)N1 on BRAF D594G (Homo sapiens, UniProt P15056, D594G)?
## Result 30 to 70%

Origin of values: patent US20260317324A1
